# TARGET OF ASSAY: T1, mmIL4R-mFc (Macaca mulatta IL-4R extracellular domain fused to murine IgG2a Fc) (Macaca mulatta)
# T1 chain: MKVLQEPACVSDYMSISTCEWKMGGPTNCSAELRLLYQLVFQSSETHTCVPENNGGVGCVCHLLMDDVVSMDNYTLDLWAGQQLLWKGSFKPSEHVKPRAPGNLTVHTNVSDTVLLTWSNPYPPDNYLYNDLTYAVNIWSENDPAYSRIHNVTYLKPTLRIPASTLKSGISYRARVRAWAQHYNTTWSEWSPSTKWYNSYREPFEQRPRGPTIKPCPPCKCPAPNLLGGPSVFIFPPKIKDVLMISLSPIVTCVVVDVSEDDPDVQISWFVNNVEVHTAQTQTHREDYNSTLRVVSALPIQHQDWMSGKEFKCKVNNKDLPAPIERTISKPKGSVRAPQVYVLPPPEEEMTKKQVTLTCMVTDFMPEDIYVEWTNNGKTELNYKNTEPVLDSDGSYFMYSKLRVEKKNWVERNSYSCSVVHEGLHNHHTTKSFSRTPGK
# PROTOCOL: SPR Biacore X100, antibody captured, mmIL4R-mFc as analyte
Measured kon by item
Write the figure, then the unit, nothing else.

L28G5-IgG4 (antibody, V domains shown, also called S1E6 light chain mutant L28G5) VH: EVQLVESGGGLVQPGGSLRLSCAVSGFTFSSYAMSWVRQAPGKGLEWVSSITGGGGGIYYADSVKGRFTISRDNSKNTVYLQMNSLRAEDTAVYYCAKDRISITIRPRYFGLDFWGQGTTVTVSS VL: DIVMTQSPLSLPVTPGEPASISCRSSRNVIYGNGYNYLDWYLQKSGQSPQLLIYLGNNVAAGVPDRFSGSGSGTDFTLKISRVEAEDVGFYYCMQSLQAPYTFGQGTKLEIKR :: 684000 M⁻¹ s⁻¹
L28F8-IgG4 (antibody, V domains shown, also called S1E6 light chain mutant L28F8) VH: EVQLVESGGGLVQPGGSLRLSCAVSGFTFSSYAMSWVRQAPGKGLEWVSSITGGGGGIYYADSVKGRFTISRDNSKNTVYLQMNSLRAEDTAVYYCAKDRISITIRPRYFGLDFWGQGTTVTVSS VL: DIVMTQSPLSLPVTPGEPASISCRSSQNVVYGNGYNYLDWYLQKSGQSPQLLIYLGTNVAAGVPDRFSGSGSGTDFTLKISRVEAEDVGFYYCMQSLQAPYTFGQGTKLEIKR :: 748000 M⁻¹ s⁻¹
S1E6-IgG4 (antibody, V domains shown, also called monoclonal antibody S1E6) VH: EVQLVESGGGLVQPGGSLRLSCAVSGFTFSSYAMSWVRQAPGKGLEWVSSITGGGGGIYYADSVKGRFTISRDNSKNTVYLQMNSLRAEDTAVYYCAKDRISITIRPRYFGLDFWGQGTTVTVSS VL: DIVMTQSPLSLPVTPGEPASISCRSSRSVLYGNGYNYLDWYLQKSGQSPQLLIYLGTNVAAGVPDRFSGSGSGTDFTLKISRVEAEDVGFYYCMQSLRTPYTFGQGTKLEIKR :: 527000 M⁻¹ s⁻¹
L18D7-IgG4 (antibody, V domains shown, also called S1E6 light chain mutant L18D7) VH: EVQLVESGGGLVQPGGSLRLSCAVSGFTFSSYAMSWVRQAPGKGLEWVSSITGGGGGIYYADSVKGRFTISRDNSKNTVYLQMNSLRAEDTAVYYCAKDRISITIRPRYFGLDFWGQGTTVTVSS VL: DIVMTQSPLSLPVTPGEPASISCRSSQSLLYSIGYNYLDWYLQKSGQSPQLLIYLGSNRASGVPDRFSGSGSGTDFTLKISRVEAEDVGFYYCMQSFKAPYTFGQGTKLEIKR :: 590000 M⁻¹ s⁻¹

### Prompt Name the recorded kon for L28C9-IgG4 (antibody, V domains shown, also called S1E6 light chain mutant L28C9) VH: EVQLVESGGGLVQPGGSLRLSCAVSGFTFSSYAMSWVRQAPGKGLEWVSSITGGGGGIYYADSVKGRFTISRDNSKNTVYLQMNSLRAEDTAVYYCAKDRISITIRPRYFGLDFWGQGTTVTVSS VL: DIVMTQSPLSLPVTPGEPASISCRSSQNVVYGNGYNYLDWYLQKSGQSPQLLIYLGNNVAAGVPDRFSGSGSGTDFTLKISRVEAEDVGFYYCMQSLKAPYTFGQGTKLEIKR .
### Response 706000 M⁻¹ s⁻¹
